tested on: Pseudomonas 2 (Pseudomonas vancouverensis); test: relative growth (AUC of 72 h growth curve relative to DMSO control, dAUC) (ratio); higher = more growth (less inhibition), active = hit call of the paper; settings: 20 µM
MEASURED PROPERTY: relative growth
The answer should be written as a number, with no unit following it.

Exercise: State its relative growth on Pseudomonas 2 (Pseudomonas vancouverensis): `N#Cc1c(Cl)c(Cl)c(Cl)c(C#N)c1Cl`
Key: 0.972

New cases:
Exercise: State its relative growth on Pseudomonas 2 (Pseudomonas vancouverensis): `O=C(O)c1nc(Cl)ccc1Cl`
Key: 0.984

Exercise: Repeat for the following compound: `CC(C)OC(=O)C(C(=O)OC(C)C)=C1SCCS1`
Key: 0.995

Exercise: Repeat for the following compound: `CC(C)NC(=O)N1CC(=O)N(c2cc(Cl)cc(Cl)c2)C1=O`
Key: 0.94

Exercise: Repeat for the following compound: `CC(C)N(C(=O)COc1nnc(C(F)(F)F)s1)c1ccc(F)cc1`
Key: 1.03

====

tested on: Flavobacterium 2 (Flavobacterium succinicans); assay: relative growth (AUC of 72 h growth curve relative to DMSO control, dAUC) (ratio); higher = more growth (less inhibition), active = hit call of the paper; conditions: 20 µM
MEASURED PROPERTY: relative growth

Exercise: State its relative growth on Flavobacterium 2 (Flavobacterium succinicans): `CC(C)(C)[C@@H](O)[C@H](Oc1ccc(Cl)cc1)n1cncn1`
Key: 1.02 (inactive)

Exercise: Repeat for the following compound: `O=C(Nc1ccc(F)cc1F)c1cccnc1Oc1cccc(C(F)(F)F)c1`
Key: 1.03 (inactive)

Exercise: Repeat for the following compound: O=C1C2(Cl)C3(Cl)C4(Cl)C(Cl)(Cl)C5(Cl)C3(Cl)C1(Cl)C5(Cl)C24Cl (configuration not stated)
Key: 0.847 (inactive)

Exercise: Repeat for the following compound: `O=C(NCCc1ncc(C(F)(F)F)cc1Cl)c1ccccc1C(F)(F)F`
Key: 0.962 (inactive)

Exercise: Repeat for the following compound: OC(Cc1ccccc1Cl)(Cn1nc[nH]c1=S)C1(Cl)CC1 (configuration not stated)
Key: 1 (inactive)

Exercise: Repeat for the following compound: Cc1cc(C(C#N)c2ccc(Cl)cc2)c(Cl)cc1NC(=O)c1cc(I)cc(I)c1O (configuration not stated)
Key: 0.794 (active)

Exercise: Repeat for the following compound: `C[N+](C)(C)CCCl`
Key: 0.996 (inactive)

Exercise: Repeat for the following compound: `CCCCc1c(C)nc(NCC)nc1OS(=O)(=O)N(C)C`
Key: 0.904 (inactive)

Exercise: Repeat for the following compound: `Cc1cc(C2CC2)nc(Nc2ccccc2)n1`
Key: 0.86 (inactive)

Exercise: Repeat for the following compound: `COC(=O)N(OC)c1ccccc1COc1ccn(-c2ccc(Cl)cc2)n1`
Key: 0.979 (inactive)

New cases:
Exercise: State its relative growth on Flavobacterium 2 (Flavobacterium succinicans): `O=C(O)CNCP(=O)(O)O`
Key: 1.02 (inactive)

Exercise: Repeat for the following compound: `Fc1ccc(Oc2ccnc3cc(Cl)cc(Cl)c23)cc1`
Key: 1.01 (inactive)

====

test system: Community 8; test: relative growth (AUC of 72 h growth curve relative to DMSO control, dAUC) (ratio); higher = more growth (less inhibition), active = hit call of the paper; settings: 20 µM
MEASURED PROPERTY: relative growth
The answer should be written as a number, with no unit following it.

Answered cases to consult:
Exercise: # query: relative growth of entry `O=[N+]([O-])c1cc(C(F)(F)F)c(Cl)c([N+](=O)[O-])c1Nc1ncc(C(F)(F)F)cc1Cl`
Key: 0.921

Exercise: Repeat for the following compound: `O=C1C=C(N(Cc2ccc(Cl)nc2)CC(F)F)CO1`
Key: 0.997

Exercise: Repeat for the following compound: `COc1cc(C)c(C(=O)c2c(OC)ccc(Br)c2C)c(OC)c1OC`
Key: 1.08

New cases:
Exercise: # query: relative growth of entry C#CCOc1ccc(CCNC(=O)C(OCC#C)c2ccc(Cl)cc2)cc1OC (stereo not drawn)
Key: 1.05

Exercise: Repeat for the following compound: OC(Cc1ccccc1Cl)(Cn1nc[nH]c1=S)C1(Cl)CC1 (stereo not drawn)
Key: 1.03

Exercise: Repeat for the following compound: `CC1(C)CON(Cc2ccccc2Cl)C1=O`
Key: 1.04

Exercise: Repeat for the following compound: CC(COc1ccc(Oc2ccccc2)cc1)Oc1ccccn1 (stereo not drawn)
Key: 1.06

Exercise: Repeat for the following compound: `CCCCN(CCCC)SN(C)C(=O)Oc1cccc2c1OC(C)(C)C2`
Key: 1.01

Exercise: Repeat for the following compound: `CCNC(=O)NC(=O)/C(C#N)=N/OC`
Key: 1.02

Exercise: Repeat for the following compound: `Cc1cc(C)c(C2=C(OC(=O)CC(C)(C)C)C3(CCCC3)OC2=O)c(C)c1`
Key: 1.08

Exercise: Repeat for the following compound: Fc1ccc([C@]2(Cn3cncn3)O[C@H]2c2ccccc2Cl)cc1 (racemic)
Key: 1.04

Exercise: Repeat for the following compound: `CCc1cc(C)cc(CC)c1-c1c(OC(=O)C(C)(C)C)n2n(c1=O)CCOCC2`
Key: 0.968
